SUBJECT_OF_TEST: human NTPDase1 (Homo sapiens)
Sequence (P49961 1-510): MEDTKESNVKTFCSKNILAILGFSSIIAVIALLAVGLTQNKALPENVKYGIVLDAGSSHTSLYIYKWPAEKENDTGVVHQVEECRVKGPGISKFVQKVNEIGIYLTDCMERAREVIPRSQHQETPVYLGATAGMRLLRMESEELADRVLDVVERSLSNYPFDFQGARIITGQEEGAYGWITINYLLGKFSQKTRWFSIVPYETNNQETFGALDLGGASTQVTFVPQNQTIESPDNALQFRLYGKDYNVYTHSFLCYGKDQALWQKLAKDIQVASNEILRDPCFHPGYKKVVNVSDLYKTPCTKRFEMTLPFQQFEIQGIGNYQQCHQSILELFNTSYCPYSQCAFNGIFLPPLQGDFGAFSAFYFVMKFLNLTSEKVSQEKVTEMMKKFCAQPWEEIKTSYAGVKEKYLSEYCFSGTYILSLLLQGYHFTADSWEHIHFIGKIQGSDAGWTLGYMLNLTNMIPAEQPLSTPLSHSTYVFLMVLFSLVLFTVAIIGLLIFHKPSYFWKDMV
OBSERVED_PROPERTY: IC50

The value of IC50 measured for the molecule CCCN(Cc1ccc(-c2cn(CCF)nn2)cc1)c1nc(Cl)nc2c1ncn2[C@@H]1O[C@H](COP(=O)(O)CP(=O)(O)O)C(O)C1O (stereo partly shown) [Compound 2] turned out to be > 50 µM

* * *

# reported IC50; entries follow
SUBJECT_OF_TEST: UniProt:Q9H244
METHOD_SUMMARY: β-arrestin recruitment assay at P2Y12 receptor
EXPERIMENTAL_CONDITIONS: 2-methylthio-ADP as agonist at EC80 (3 μM); CHO-PK1 cells; read-out: Inhibition P2Y12 receptor IC50

molecule="O=C(NCCCCCCNC(=O)c1ccc2c(c1)C1(OC2=O)c2ccc(O)cc2Oc2cc(O)ccc21)c1ccc(CNc2nc(Cl)nc3c2ncn3[C@@H]2O[C@H](COP(=O)(O)CP(=O)(O)O)[C@@H](O)[C@H]2O)cc1 [Compound 20]" subject_of_test=UniProt:Q9H244 observed_value="> 10 µM"

The value of IC50 measured for the molecule CCCN(Cc1ccc(-c2cn(CCF)nn2)cc1)c1nc(Cl)nc2c1ncn2[C@@H]1O[C@H](COP(=O)(O)CP(=O)(O)O)C(O)C1O (some centres unmarked) [Compound 2] turned out to be > 10 µM

* * *

SUBJECT_OF_TEST: human P2Y12 receptor (Homo sapiens)
Sequence (Q9H244 whole entry): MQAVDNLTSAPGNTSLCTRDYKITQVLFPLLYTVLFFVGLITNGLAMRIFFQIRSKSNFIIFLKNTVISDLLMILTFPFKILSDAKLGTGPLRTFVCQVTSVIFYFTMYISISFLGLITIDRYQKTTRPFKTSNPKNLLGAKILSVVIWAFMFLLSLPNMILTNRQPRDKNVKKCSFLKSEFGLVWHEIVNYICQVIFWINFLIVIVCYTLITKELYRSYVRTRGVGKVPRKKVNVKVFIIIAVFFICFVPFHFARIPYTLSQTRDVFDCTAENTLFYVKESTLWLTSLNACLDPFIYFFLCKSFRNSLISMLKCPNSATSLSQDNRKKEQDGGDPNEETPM
METHOD_SUMMARY: β-arrestin recruitment assay at P2Y12 receptor
EXPERIMENTAL_CONDITIONS: CHO-PK1 cells; read-out: Activation P2Y12 receptor EC50
From the text: The interaction of 2 with the human P2Y12 receptor was investigated in a β-arrestin recruitment assay using the galactosidase complementation technology as previously described.^25-27 The human P2Y12 receptor was expressed in CHO-PK1 cells (Eurofins DiscoverX, Fremont, CA, USA). For results see Table 2 and Table 3.
# reported EC50; entries follow

compound="CCCN(Cc1ccc(-c2cn(CCF)nn2)cc1)c1nc(Cl)nc2c1ncn2[C@@H]1O[C@H](COP(=O)(O)CP(=O)(O)O)C(O)C1O (some centres unmarked)" observed_property=EC50 observed_value="> 10 µM"

The value of EC50 measured for the compound O=C(NCCCCCCNC(=O)c1ccc2c(c1)C1(OC2=O)c2ccc(O)cc2Oc2cc(O)ccc21)c1ccc(CNc2nc(Cl)nc3c2ncn3[C@@H]2O[C@H](COP(=O)(O)CP(=O)(O)O)[C@@H](O)[C@H]2O)cc1 turned out to be > 10 µM
